# Subject Of Test: Schistosoma mansoni thioredoxin glutathione reductase (TGR) (UniProt Q962Y6)
# Procedure Text: qHTS Assay for the Inhibitors of Schistosoma Mansoni Peroxiredoxins; further: nearly all actives have a fitted effect of over 60% in size
# Measurement Context: purified TGR, DTNB reduction, TNB absorbance 405 nm; series mostly up to 114 µM
# From the text: Schistosomiasis is a major neglected tropical disease that currently affects over 200 million. It is caused by different species of flatworms, such as Schistosoma mansoni. […] In addition, the fluorescence assay was also subject to fluorescence interference from compound library members. […] The assay followed the reduction of 5, 5'-dithiobis (2-nitrobenzoic acid) (DTNB) (Ellman's reagent) by NADPH and measured the increase in absorbance at 412 nm of the reaction product, TNB. […]
The campaign covered roughly 360,000 compounds. About 11,000 (3.1%) were called active. Not shown: some 4% with an inconclusive outcome. The call rests on the fitted dose curve; in most records, active means well fitted inhibition curve with a large enough effect; inconclusive means small, poorly fitted or top-dose-only effect; inactive means no such curve, though single readings can be large or run the other way. Shown is part of a subset that was picked to be rich in actives.
Respond with a class label; see 1 (yes) for active, 0 (no) for inactive

Per the assay record, what outcome was assigned to CC(=O)C1=C(C)NC(=O)NC1c1ccc2c(c1)OCO2 (configuration not stated) ?
0 (no)

Per the assay record, what outcome was assigned to COc1ccc(NC(=O)Cn2c(=O)n(Cc3ccc(C(=O)NCc4ccccc4Cl)cc3)c(=O)c3ccccc32)cc1 ?
0 (no)

Per the assay record, what outcome was assigned to O=C(Nc1ccc2nc(SCC(=O)N3CCCc4ccccc43)sc2c1)c1ccc(F)cc1 ?
0 (no)

Per the assay record, what outcome was assigned to O=C(O)c1ccc2c(c1)N(Cc1ccc(F)cc1)C(=O)c1ccccc1S2=O (configuration not stated) ?
0 (no)

Per the assay record, what outcome was assigned to CCCCCn1c(CCNC(=O)c2ccc(F)cc2)nc2ccccc21 ?
0 (no)

Per the assay record, what outcome was assigned to CCOc1ccccc1CNC(=O)Nc1cn(CC(C)C)c(=O)c2ccccc12 ?
0 (no)

Per the assay record, what outcome was assigned to C/C(=C\c1ccccc1)C1NC(=O)c2c(sc3c2CCCC3)N1 (configuration not stated) ?
0 (no)

Per the assay record, what outcome was assigned to COc1cc(CN(C(=O)c2ccccc2Br)c2ccccn2)cc(OC)c1OC ?
0 (no)

Per the assay record, what outcome was assigned to COc1ccc(Cn2c(C(=O)O)c(CNCc3cccc(OC)c3)c3ccc(C)cc32)cc1 ?
0 (no)

Per the assay record, what outcome was assigned to COCCN(Cc1ccco1)C(=O)Cn1ncc2c([nH]c3ccccc32)c1=O ?
0 (no)

Per the assay record, what outcome was assigned to CCN(c1ccc(Cl)cc1)S(=O)(=O)c1nnc(NC(=O)c2ccco2)s1 ?
0 (no)

Per the assay record, what outcome was assigned to Cc1[nH]c(=O)c(C(=O)/C=C/c2ccccc2)c2c1CCCC2 ?
1 (yes)

---

# Subject Of Test: Schistosoma mansoni thioredoxin glutathione reductase (TGR) (UniProt Q962Y6)
# Procedure Text: qHTS Assay for the Inhibitors of Schistosoma Mansoni Peroxiredoxins; further: nearly all actives have a fitted effect of over 60% in size
# Measurement Context: purified TGR, DTNB reduction, TNB absorbance 405 nm; series mostly up to 114 µM
Among all 360,000 compounds or so, about 11,000 (3.1%) were called active. Roughly 4% stayed inconclusive and do not appear here. The call rests on the fitted dose curve; in most records, active means well fitted inhibition curve with a large enough effect; inconclusive means small, poorly fitted or top-dose-only effect; inactive means no such curve, though single readings can be large or run the other way. This is one part of a sample in which actives are shown more often than they occur.
Respond with a class label; see yes (1) for active, no (0) for inactive

Per the assay record, what outcome was assigned to Cc1ccc(NC(=O)c2cc(S(=O)(=O)NCCC3=CCCCC3)ccc2F)cc1C ?
no (0)

Per the assay record, what outcome was assigned to O=C(CCN1C(=O)c2ccccc2C1=O)Nc1cccc(F)c1 ?
no (0)

Per the assay record, what outcome was assigned to Cc1c(Cl)cccc1NC(=S)NCc1ccc2c(c1)OCO2 ?
no (0)

Per the assay record, what outcome was assigned to COc1cc2ccccc2cc1C(=O)Nc1cccc(-c2nc3ccccc3o2)c1 ?
no (0)

Per the assay record, what outcome was assigned to O=S(=O)(NCCc1nnc2ccc(SCc3ccc(Cl)cc3Cl)nn12)c1ccccc1 ?
no (0)

Per the assay record, what outcome was assigned to COC(=O)Cc1ccc(NC(=S)NCc2ccco2)cc1 ?
no (0)

Per the assay record, what outcome was assigned to Cc1cccc(C(=O)Nc2ccc(S(=O)(=O)N3CCCCC3c3cccnc3)cc2)c1 (stereo not given) ?
no (0)

Per the assay record, what outcome was assigned to COC(=O)CC1Oc2ccccc2-n2cc(-c3ccccc3)nc21 (stereo not given) ?
no (0)

Per the assay record, what outcome was assigned to COc1ccc(Cl)cc1NC(=O)CCn1c(=O)c2cccn2c2ccccc21 ?
no (0)

Per the assay record, what outcome was assigned to O=C1c2ccccc2C(=O)N1CCC(O)C[N+](=O)[O-] (stereo not given) ?
yes (1)

Per the assay record, what outcome was assigned to COc1ccc(NC(=O)CSc2ccc(-c3ccco3)nn2)c(OC)c1 ?
yes (1)

Per the assay record, what outcome was assigned to CN(C(=O)CSc1nc2ccc(NC(=O)COc3ccccc3)cc2s1)c1ccccc1 ?
no (0)

Per the assay record, what outcome was assigned to O=S(=O)(c1ccccc1)c1nc(-c2ccccc2)oc1NCCCN1CCOCC1 ?
no (0)

Per the assay record, what outcome was assigned to COC(=O)c1ccccc1NC(=O)C(Cc1ccccc1)N1Cc2ccccc2C1=O (stereo not given) ?
no (0)

Per the assay record, what outcome was assigned to CCOc1ccccc1NC(=O)C1=C(C)Nc2ncnn2C1c1ccc(NC(C)=O)cc1 (stereo not given) ?
no (0)

---

# Subject Of Test: Schistosoma mansoni thioredoxin glutathione reductase (TGR)
# Procedure Text: qHTS Assay for the Inhibitors of Schistosoma Mansoni Peroxiredoxins; further: nearly all actives have a fitted effect of over 60% in size; further: potency means the concentration at half of the fitted maximal effect
# Measurement Context: purified TGR, DTNB reduction, TNB absorbance 405 nm; series mostly up to 114 µM
Screen size: about 360,000 compounds; about 11,000 (3.1%) were called active. Roughly 4% stayed inconclusive and do not appear here. This excerpt belongs to a sample that is enriched for actives.
Readout Kind: Potency

Example results:
COc1ccc(Cl)cc1-n1c(CCC(=O)O)ccc1-c1ccc(C)cc1    39.8 µM (active)
Cc1cc(C)n(CCNC(=O)CC2C(=O)NCCN2Cc2ccc(C)o2)n1 (stereo not given)    39.8 µM (active)
COc1ccc2[nH]c3c(c2c1)CCN(C(=O)CCC1CCCC1)C3c1ccc(F)cc1 (stereo not given)    inactive
CCC1=Nc2cc(C(=O)NCC(C)c3ccccc3)ccc2Sc2ccc(C)cc21 (stereo not given)    inactive

Now consider a different molecule.
Which Potency value is on record for COc1ccc(Cl)cc1NC(=O)Cn1nc(-c2ccc(C)cc2)n(C)c1=S ?
inactive

---

# Subject Of Test: Schistosoma mansoni thioredoxin glutathione reductase (TGR)
# Procedure Text: qHTS Assay for the Inhibitors of Schistosoma Mansoni Peroxiredoxins; further: nearly all actives have a fitted effect of over 60% in size
# Measurement Context: purified TGR, DTNB reduction, TNB absorbance 405 nm; series mostly up to 114 µM
Out of some 360,000 compounds screened, about 11,000 (3.1%) were called active. Not shown: some 4% with an inconclusive outcome. Calls come from the whole dose curve; as a rule, active = well fitted inhibition curve with a large enough effect; inconclusive = small, poorly fitted or top-dose-only effect; inactive = no such curve, though single readings can be large or run the other way. Shown is part of a subset that was picked to be rich in actives.
Respond with a class label; see active, inactive

Per the assay record, what outcome was assigned to CCOC(=O)c1c(-c2ccccc2)oc2ccc(OC(=O)N(C)C)cc12 ?
inactive

Per the assay record, what outcome was assigned to COc1cc(OC)c(C2C=C(C(=O)O)Nc3ncnn32)cc1OC (stereo not drawn) ?
inactive

Per the assay record, what outcome was assigned to Cc1nc2sc(C)c(C)n2c(=O)c1S(=O)(=O)NCCc1ccc(Cl)cc1 ?
inactive

Per the assay record, what outcome was assigned to Cc1nnc(NC(=O)/C=C/c2ccco2)s1 ?
active

Per the assay record, what outcome was assigned to O=C(CN1C(=O)CCn2nc(-c3ccccc3)cc21)NCc1ccccc1 ?
inactive

Per the assay record, what outcome was assigned to COc1cccc(N2C(=O)CN(Cc3ccccc3)C2=S)c1 ?
inactive

Per the assay record, what outcome was assigned to CCOC(=O)CN(C)Cc1c[nH]c2ccccc12 ?
active

Per the assay record, what outcome was assigned to Cn1c(SCC(=O)c2cccs2)nnc1-c1ccco1 ?
active

---

# Subject Of Test: Schistosoma mansoni thioredoxin glutathione reductase (TGR) (UniProt Q962Y6)
# Procedure Text: qHTS Assay for the Inhibitors of Schistosoma Mansoni Peroxiredoxins; further: nearly all actives have a fitted effect of over 60% in size
# Measurement Context: purified TGR, DTNB reduction, TNB absorbance 405 nm; series mostly up to 114 µM
About 11,000 (3.1%) of roughly 360,000 compounds were called active. Another 4% or so got no clear call; they are omitted. Calls follow the shape of the dose curve; as a rule, active = well fitted inhibition curve with a large enough effect; inconclusive = small, poorly fitted or top-dose-only effect; inactive = no such curve, though single readings can be large or run the other way. The entries come from a sample that favours actives as a whole.
Respond with a class label; see active, inactive

Per the assay record, what outcome was assigned to COCCN1C(=O)C(=O)/C(=C(/O)c2ccc(S(=O)(=O)N3CCOCC3)cc2)C1c1ccc(OC)c(OC)c1 (stereo not given) ?
inactive

Per the assay record, what outcome was assigned to CCc1cnc2c(c1SCC(=O)N1CCC(C)CC1)c(=O)n(C)c(=O)n2C ?
inactive

Per the assay record, what outcome was assigned to N=C1C(c2nc3ccccc3[nH]2)=C(O)CN1NC(=O)c1c[nH]c2ccccc12 ?
inactive

Per the assay record, what outcome was assigned to Cn1c(NN)nc2sc3c(c2c1=O)CCC3 ?
inactive

Per the assay record, what outcome was assigned to Cc1nc2sc3c(c2c(=O)n1NC(=O)CCl)CCCC3 ?
active

Per the assay record, what outcome was assigned to COc1ccc(C2Sc3ccccc3NC3=C2C(=O)c2ccccc23)c(OC)c1OC (stereo not given) ?
inactive

Per the assay record, what outcome was assigned to Cc1cccc(NC(=O)Cn2c(=O)n(CCC(C)C)c(=O)c3cccnc32)c1 ?
inactive

Per the assay record, what outcome was assigned to N#Cc1nc(/C=C/c2ccc(F)cc2)oc1NC1CCCCC1 ?
inactive

Per the assay record, what outcome was assigned to CC1=C(C/C=C(\C)CCCC(C)CCCC(C)CCCC(C)C)C(=O)c2ccccc2C1=O (stereo not given) ?
active

Per the assay record, what outcome was assigned to O=C(Nc1cc(Cl)cc(Cl)c1)c1ccc2c(c1)N(Cc1cccc(Cl)c1)C(=O)c1ccccc1S2=O (stereo not given) ?
inactive

Per the assay record, what outcome was assigned to O=C1CSC2(C(=O)N(Cc3ccccc3)c3ccccc32)N1c1cccc(F)c1 (stereo not given) ?
inactive

Per the assay record, what outcome was assigned to Cc1ccc2c(=O)cc(C(=O)Nc3sc4c(c3C(=O)NCc3cccnc3)CCCC4)oc2c1 ?
inactive

Per the assay record, what outcome was assigned to CCOc1ccccc1NC(=O)NC1CCCCCCC1 ?
inactive

Per the assay record, what outcome was assigned to CCCCN=C1N/C(=C\c2ccco2)C(=O)N1c1ccccc1 ?
active

Per the assay record, what outcome was assigned to Cc1ccc(C)n1NC(=O)c1ccc([N+](=O)[O-])cc1 ?
inactive

Per the assay record, what outcome was assigned to Cc1ccc(-c2nnc(Nc3ccc(OCC(N)=O)cc3)c3ccccc23)cc1S(=O)(=O)NCC1CCCO1 (stereo not given) ?
inactive

Per the assay record, what outcome was assigned to CCc1ccccc1NS(=O)(=O)c1ccc2nc(-c3ccccc3)[nH]c2c1 ?
inactive

Per the assay record, what outcome was assigned to CCOc1ccccc1NC(=S)NC(=O)CCc1ccccc1 ?
active

Per the assay record, what outcome was assigned to O=C(NCC(c1cccnc1)N1CCc2ccccc21)c1cccc(C(F)(F)F)c1 (stereo not given) ?
inactive

Per the assay record, what outcome was assigned to O=C(CCSCc1ccccc1F)N1CCN(c2ccc(Cl)cc2)CC1 ?
inactive

Per the assay record, what outcome was assigned to Cc1ccc(C(=O)CC2(O)C(=O)N(CCc3ccccc3)c3ccc(Br)cc32)cc1 (stereo not given) ?
inactive

Per the assay record, what outcome was assigned to Cc1ccc(C2c3[nH]c4ccccc4c3CCN2C(=O)c2cccc(C)c2)cc1 (stereo not given) ?
inactive

Per the assay record, what outcome was assigned to CCOc1ccc(CCNC(=O)c2c(C)oc3ncn(C)c(=O)c23)cc1 ?
inactive

Per the assay record, what outcome was assigned to NS(=O)(=O)c1ccc(CCNC(=O)CCCCCn2c(=O)[nH]c3ccccc3c2=O)cc1 ?
inactive

Per the assay record, what outcome was assigned to Cc1ccc(C)c(NC(=O)CSC2=Nc3ccccc3N=C(c3ccc(F)cc3)C2)c1 ?
inactive

Per the assay record, what outcome was assigned to O=S(=O)(Nc1ccc2nc(-c3ccco3)[nH]c2c1)c1ccccc1 ?
active

Per the assay record, what outcome was assigned to CCN(CC)CCNC(=O)CN1N=C(c2ccc(OC)cc2)CCC1=O ?
inactive

Per the assay record, what outcome was assigned to CCC(=O)N1CCc2cc(Br)cc(S(=O)(=O)Nc3ccc(C)cc3C)c21 ?
inactive

Per the assay record, what outcome was assigned to CN1c2ccc(C=O)c3c(C=O)ccc(c23)N(C)C1(C)C ?
active

Per the assay record, what outcome was assigned to O=C(NC1CC(=O)N(c2ccccc2)C1)c1ccco1 (stereo not given) ?
inactive

Values compiled from PubChem BioAssay AID485364.
